Test system: PC-3 prostate
ASSAY_NAME: NCI-60 one-dose screen, 48 h
MEASUREMENT_CONTEXT: 10 µM unless noted
This is part of a sample that, as a whole, favours compounds with a hit. Of some 83,000 tested, about 20% had one in any assay. Calls of active or inactive are those of the source. Rule for the calls: active = growth percent below 10; inactive = the rest.
# valid calls are yes (1) = active, no (0) = inactive; nothing else

Below, 2 compounds whose answers are already recorded.
- COC(=O)[C@]12CC[C@@H](C)[C@H](C)[C@@H]1C1=CC[C@@H]3[C@@]4(C)C[C@@H](OC(=O)/C=C/c5ccccc5)[C@H](O)[C@@](C)(CO)[C@@H]4[C@H](O)C[C@@]3(C)[C@]1(C)CC2: no (0)
- O=C(Cc1ccc(/C=C/C(=O)c2ncc[nH]2)cc1)Nc1ccc(Br)cc1: no (0)

Please state the recorded outcome for this compound: CCN(CC)CCCC(C)Nc1cc(-c2ccc(C(F)(F)F)cc2)c(C#N)c2nc3ccccc3n12 (stereo unspecified)
no (0)

Please state the recorded outcome for this compound: O=C1CSC(c2c(F)cccc2Cl)N1NC(=O)C(O)(c1ccccc1)c1ccccc1 (stereo unspecified)
no (0)

Please state the recorded outcome for this compound: `Cn1ccnc1C(=O)/C=C/c1ccc(CC(=O)Nc2ccc(Br)cc2)cc1`
no (0)

Please state the recorded outcome for this compound: `CC(C)n1c(NCCc2ccc(O)c(O)c2)nc2c1c(=O)n(C)c(=O)n2C`
no (0)

###

Tested on: SK-MEL-2 melanoma
ASSAY_NAME: NCI-60 one-dose screen, 48 h (100 = growth as untreated, 0 = no growth, -100 = all killed)
MEASUREMENT_CONTEXT: 10 µM
This is part of a sample that, as a whole, favours compounds with a hit. Of some 83,000 tested, about 20% had one in any assay.
Give growth for every item shown.
One number for each entry, in %.

Some compounds with known growth results, for comparison:
• O=C1CC(c2cccc(F)c2)c2c(n[nH]c2-c2ccc(Cl)cc2)N1 (centres undefined) = 110
• COc1ccc(C2CC(=O)c3c(O)c(OC)c(OC)c(OC)c3O2)c(O)c1 (centres undefined) = 52
• COC(=O)[C@@H](C)CNS(=O)(=O)N(c1cc(C(F)(F)F)cc(C(F)(F)F)c1)C1CCN(Cc2ccc(F)cc2)CC1 = 81.7

Query compound follows.
Give growth (SK-MEL-2 melanoma) of the following compound: CCN(CC)CCCC(C)Nc1cc(-c2ccc(C(F)(F)F)cc2)c(C#N)c2nc3ccccc3n12 (centres undefined)
79.3

###

System: HS 578T breast
ASSAY_NAME: NCI-60 one-dose screen, 48 h (100 = growth as untreated, 0 = no growth, -100 = all killed)
MEASUREMENT_CONTEXT: 10 µM
Compounds without any hit were thinned out: in the full panel of roughly 83,000, 20% have a hit.
Give growth for every item shown.
Numbers only, in %.

Some molecules with known growth results, for comparison:
* O=C(Cc1ccccc1)Nc1nnc(NC2CCN(c3nnc(NC(=O)Cc4ccccc4)s3)CC2)s1 | 78.6
* C=CC[n+]1c(/C=C2\Sc3ccccc3N2C)sc(-c2ccccc2)c1-c1ccccc1 | 56.9
* CCOc1cccc(/C=N/NC(=O)c2ccccc2Nc2ccnc(C(F)(F)F)c2)c1O | 39.2
* CCN1CCN(Cc2ccc(NC(=O)Nc3nc(-c4cc(OC)c(OC)c(OC)c4)cs3)cc2C(F)(F)F)CC1 | 40
* COc1cnc2c(c1)C(=O)c1c-2n(CCCN2CCOCC2)c(=O)c2cc(Cl)ccc12 | 79.2

Quick request: growth for each listed item, please.
1. O=[N+]([O-])c1cc(Br)cc2c1[nH]c1ccc(Br)cc12
2. N#Cc1c(C(F)(F)F)cc(Nc2ccc3nc(NCCN4CCCC4)oc3c2)n2c1nc1ccccc12
3. COc1ccc(C(=O)N2c3ccccc3Sc3ccccc32)c(F)c1
4. C=C1C(=O)O[C@H]2[C@H]1CC/C(CNC(=O)c1cc3cc(OC)ccc3[nH]1)=C\CC[C@@]1(C)O[C@@H]21
5. N#Cc1c(-c2ccc(Cl)cc2)csc1NC(=O)Nc1cccc(C(F)(F)F)c1

1. 65.4
2. 100
3. 15.9
4. -1.38
5. 47.9

###

Test system: M14 melanoma
ASSAY_NAME: NCI-60 one-dose screen, 48 h (100 = growth as untreated, 0 = no growth, -100 = all killed)
MEASUREMENT_CONTEXT: 10 µM unless noted
The panel holds about 83,000 compounds, 20% with a hit somewhere; the sample as a whole holds those more often. Active and inactive are the calls of the source. The calls were made as follows: active = growth percent below 10; inactive = the rest.
MEASURE_NAME: growth

Quick request: growth for each listed item, please.
1. CNC(=O)c1cc(COc2nnc(Nc3ccc(Cl)cc3)c3ccoc23)ccn1
2. Cc1nn(-c2ccccc2)c2c1N=c1s/c(=C\c3cn(-c4ccccc4)nc3-c3ccc(Cl)cc3)c(=O)n1C(C)N2 (configuration not stated)

78.9% (inactive)
107% (inactive)

Quick request: growth for each listed item, please.
1. C[C@@H](Oc1cc(C(=O)Nc2ccc(C(=O)N3CCN(C)CC3)cc2)nnc1N)c1c(Cl)ccc(F)c1Cl
2. CCOC(=O)C1=C(C)N=C2Sc3cc(OC(F)(F)F)ccc3N2[C@H]1c1ccccn1
3. O=S1(=O)OC(c2ccc(O)c(Cl)c2)(c2ccc(O)c(Cl)c2)c2ccccc21
4. C=C1C(=O)O[C@H]2[C@H]1CC/C(C=Nc1c(N)cc(C(F)(F)F)cc1C(F)(F)F)=C\CC[C@@]1(C)O[C@@H]21
5. CCCS(=O)(=O)Nc1ccc(F)c(C(=O)c2c[nH]c3ncc(-c4ccc(Cl)cc4)cc23)c1F
6. COc1ccc2c(CCc3ccc(Cl)cc3)c3[n+](cc2c1OC)CCc1cc2c(cc1-3)OCO2

["76.9% (inactive)", "27.3% (inactive)", "105% (inactive)", "-61.2% (active)", "3.85% (active)", "37.9% (inactive)"]

Quick request: growth for each listed item, please.
1. O=C1/C(=C\c2cccc(OCCCCCOc3ccc(Cl)cc3)c2)N=C2SCCCN12
2. Cc1cc2c(-c3nc4ccccn4c3NC3CCCCC3)c(O)c(O)cc2c(O)c1-c1c(C)cc2c(-c3nc4ccccn4c3NC3CCCCC3)c(O)c(O)cc2c1O
3. COc1cc2c(c(OC)c1)C1c3ccccc3NC(=O)N1CC2 (configuration not stated)

["44.5% (inactive)", "16.5% (inactive)", "-18.6% (active)"]

###

Tested on: K-562 leukemia
ASSAY_NAME: NCI-60 one-dose screen, 48 h (100 = growth as untreated, 0 = no growth, -100 = all killed)
MEASUREMENT_CONTEXT: 10 µM unless noted
The panel holds about 83,000 compounds, 20% with a hit somewhere; the sample as a whole holds those more often.
Give growth for every item shown.
One number for each entry, in %.

Some compounds with known growth results, for comparison:
• Ic1ccccc1-c1ccccc1 = 104
• COc1cc(Nc2ncc(F)c(Nc3ccc4c(n3)N(COP(=O)(O)O)C(=O)C(C)(C)O4)n2)cc(OC)c1OC = 32.3
• COc1cc(NCCCN)c2ncccc2c1 = 89.9

Quick request: growth for each listed item, please.
1. COC(=O)Nc1nc2ccc(C(=O)c3ccc(N(C)C4COC4)cc3)cc2[nH]1
2. COC(=O)[C@H](Cc1ccccc1)NC(=O)[C@@H](OC)[C@@H]1Cc2cc3cc(OC4CC(OC5CC(O)C(O)C(C)O5)C(O)C(C)O4)c(C)c(O)c3c(O)c2C(=O)[C@H]1OC1CC(OC2CC(OC3CC(C)(O)C(O)C(C)O3)C(O)C(C)O2)C(O)C(C)O1 (stereo not given in full)

[7.83, 5.63]

###

Tested on: U251 CNS
ASSAY_NAME: NCI-60 one-dose screen, 48 h (100 = growth as untreated, 0 = no growth, -100 = all killed)
MEASUREMENT_CONTEXT: 10 µM unless noted
About 83,000 compounds went through this panel and 20% of them were active in at least one assay; those are over-represented in the sample as a whole. Calls of active or inactive are those of the source. Rule for the calls: active = growth percent below 10; inactive = the rest.
MEASURE_NAME: growth

Some compounds with known growth results, for comparison:
* COc1cc2c(cc1OCCCCN1CCN(CC(=O)Nc3ccc(Cl)cc3C(=O)c3ccccc3Cl)CC1)N=CC1CCCN1C2=O (centres undefined) | -88.4% (active)
* COC(=O)c1[nH]cnc1/N=N/N(C)CCO | 104% (inactive)

Quick request: growth for each listed item, please.
1. COc1ccc(CCCc2c3[n+](cc4c(OC)c(OC)ccc24)CCc2cc4c(cc2-3)OCO4)cc1
2. O=C(c1ccccc1)C(c1ccccc1)N1CCOCC1 (centres undefined)
3. C=CCC(=O)N[C@H](/C=C/C(=O)O)Cc1ccc(-c2cc(Cl)cc(Cl)c2)cc1
4. Clc1nc(Cl)c2ncn(CC#CCn3cnc4c(Cl)nc(Cl)nc43)c2n1
5. CNC(=O)c1cc(Oc2cccc3nc(Nc4ccc(Oc5ccccc5)cc4)ccc23)ccn1
6. CCCCn1c(C)nc2ccc(Nc3nc(N4CCN(C)CC4)nc4nc[nH]c34)cc21

["40.8% (inactive)", "95.1% (inactive)", "83% (inactive)", "-75.8% (active)", "65.6% (inactive)", "82.9% (inactive)"]
